# system: UniProt:O88867
# assayProtocol: Kynurenine-3-hydroxylase assay in the rat brain (conversion of L-kynurenine to L-3-hydroxykynurenine, HPLC with coulometric detection)
# Assay type: biochemical
# measurementSetup: rat brain homogenate; 50 μM L-kynurenine; pH 7.5; 60 min
# Experimental: Kynurenine-3-hydroxylase Assay in the Rat Brain Brain was homogenized in ice-cold 0.32 M sucrose and centrifuged at 12000×g for 30 min at 4° C. The pellet was washed three times with 0.32 M sucrose by centrifugation and suspended in 0.14 M KCl in 20 mM K-phosphate buffer at pH 7 (1 g tissue in 2 ml buffer). […]

compound	measurementUnit	IC50
COC(CC(=O)c1ccc(F)c(F)c1)C(=O)O (racemic)	µM	12.6
O=C(O)CCC(=O)c1ccc(Cl)c(Cl)c1	µM	0.9
CC(CC(=O)c1ccc(F)c(F)c1)C(=O)O (racemic)	µM	3.9
O=C(O)CCC(=O)c1ccc(F)c(F)c1	µM	3.7
CC(CC(=O)O)C(=O)c1ccc(Cl)c(Cl)c1 (racemic)	µM	14.3
COC(=O)C(O)CC(=O)c1ccc(Cl)c(Cl)c1 (racemic)	µM	3.1
O=C(CC(O)C(=O)O)c1cccc(Cl)c1 (racemic)	µM	0.45

###

# system: kynurenine-3-hydroxylase (Rattus norvegicus, UniProt O88867)
# Sequence (O88867 whole entry): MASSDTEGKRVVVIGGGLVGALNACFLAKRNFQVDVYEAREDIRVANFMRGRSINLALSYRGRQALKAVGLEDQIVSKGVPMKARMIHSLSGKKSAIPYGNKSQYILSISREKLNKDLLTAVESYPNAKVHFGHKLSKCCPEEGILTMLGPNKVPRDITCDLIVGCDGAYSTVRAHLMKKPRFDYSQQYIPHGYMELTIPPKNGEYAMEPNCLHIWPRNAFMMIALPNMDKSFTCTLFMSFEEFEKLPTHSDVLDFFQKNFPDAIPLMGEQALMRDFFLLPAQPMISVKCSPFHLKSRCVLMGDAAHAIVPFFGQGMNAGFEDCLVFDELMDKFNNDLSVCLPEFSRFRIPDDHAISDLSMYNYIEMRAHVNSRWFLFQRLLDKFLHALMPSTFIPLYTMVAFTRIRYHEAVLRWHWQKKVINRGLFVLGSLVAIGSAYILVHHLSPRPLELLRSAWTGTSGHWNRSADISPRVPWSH
# assayProtocol: Kynurenine-3-hydroxylase assay in the rat liver (radiometric, tritiated water release, rat liver mitochondrial extract)
# Assay type: biochemical
# Parameters: Rat liver mitochondrial extract was used as enzymatic preparation for this assay; from tissue; host or cells: rat liver mitochondrial extract
# measurementSetup: 0.025 mM L-kynurenine, pH 8.1, 37° C., 30 min
pIC50: −log10 of the molar value.
observedProperty: pIC50

molecule	system	endpointResult
COC(=O)CCC(=O)c1ccc(Cl)c(Cl)c1 [PNU 158381]	kynurenine-3-hydroxylase (Rattus norvegicus, UniProt O88867)	5.24
O=C(O)CCC(=O)c1ccc(F)c(F)c1 [PNU 157720]	kynurenine-3-hydroxylase (Rattus norvegicus, UniProt O88867)	4.74
CC(CC(=O)c1ccc(F)c(F)c1)C(=O)O (racemic) [PNU 157952]	kynurenine-3-hydroxylase (Rattus norvegicus, UniProt O88867)	4.26
O=C(O)C(O)C(Cc1ccccc1)C(=O)c1ccc(Cl)c(Cl)c1 (stereo not drawn) [PNU 167536]	kynurenine-3-hydroxylase (Rattus norvegicus, UniProt O88867)	4.21
COC(=O)C(CC(=O)c1ccc(Cl)c(Cl)c1)Cc1ccccc1 (racemic) [PNU 167531]	kynurenine-3-hydroxylase (Rattus norvegicus, UniProt O88867)	5.72
COC(=O)C(O)CC(=O)c1ccc(Cl)c(Cl)c1 (racemic) [PNU 161211]	kynurenine-3-hydroxylase (Rattus norvegicus, UniProt O88867)	5.25
O=C(CC(Cl)C(=O)O)c1ccc(Cl)c(Cl)c1 (racemic) [PNU 158781]	kynurenine-3-hydroxylase (Rattus norvegicus, UniProt O88867)	4.88
O=C(O)CCC(=O)c1ccc(Cl)c(Cl)c1 [PNU 156588]	kynurenine-3-hydroxylase (Rattus norvegicus, UniProt O88867)	5.41
O=C(O)CC(C(=O)c1ccc(Cl)c(Cl)c1)c1ccccc1 (racemic) [PNU 167541]	kynurenine-3-hydroxylase (Rattus norvegicus, UniProt O88867)	4.26
C=C(CC(=O)c1ccc(Cl)c(Cl)c1)C(=O)O [PNU 158432]	kynurenine-3-hydroxylase (Rattus norvegicus, UniProt O88867)	4.44
COC(CC(=O)c1ccc(F)c(F)c1)C(=O)O (racemic) [PNU 158380]	kynurenine-3-hydroxylase (Rattus norvegicus, UniProt O88867)	4.37
O=C(CC(O)C(=O)O)c1cccc(Cl)c1 (racemic) [PNU 158789]	kynurenine-3-hydroxylase (Rattus norvegicus, UniProt O88867)	5.74
